Measured values drawn from patent US12668568B2 for this set.

# TEST PROTOCOL: In vivo pharmacokinetic study, intravenous bolus
# MEASUREMENT CONTEXT: male, Hans Wistar; rat, 1 mg/kg intravenous bolus, plasma
Here, each record is paired with measured Cmax data.
I only need the number, in ng/mL, no unit after it.

1) COc1ccc(Cl)c(C(=O)NCC23CC4CC(CC(F)(C4)C2)C3)c1: 1260
2) COc1ccc(Cl)c(C(=O)NCC23CC4CC(CC(C4)C2)C3)c1 [Compound 31, reference compound]: 1190
3) COc1ccc(Cl)c(C(=O)NCC23CC4(F)CC(F)(CC(F)(C4)C2)C3)c1: 1290

Please fill in: Cmax reported for COc1ccc(Cl)c(C(=O)NCC23CC4CC(F)(CC(F)(C4)C2)C3)c1 = 1720

----------
# TEST PROTOCOL: In vivo pharmacokinetic study, intravenous bolus
# MEASUREMENT CONTEXT: male, Hans Wistar; rat, 1 mg/kg intravenous bolus, brain; read-out: AUC6 Brain
QUANTITY KIND: AUC (ng·h/mL)
I only need the number, in ng·h/mL, no unit after it.

Please fill in: AUC reported for COc1ccc(Cl)c(C(=O)NCC23CC4(F)CC(F)(CC(F)(C4)C2)C3)c1 [Compound 1] = 380

Please fill in: AUC reported for COc1ccc(Cl)c(C(=O)NCC23CC4CC(CC(F)(C4)C2)C3)c1 [Compound 3] = 286

Please fill in: AUC reported for COc1ccc(Cl)c(C(=O)NCC23CC4CC(CC(C4)C2)C3)c1 [Compound 31, reference compound] = 221

Please fill in: AUC reported for COc1ccc(Cl)c(C(=O)NCC23CC4CC(F)(CC(F)(C4)C2)C3)c1 [Compound 2] = 209

----------
# TEST PROTOCOL: In vivo pharmacokinetic study, intravenous bolus
# MEASUREMENT CONTEXT: male, Hans Wistar; rat, 1 mg/kg intravenous bolus, plasma; read-out: Cl Plasma
# Description: Male Hans Wistar rats were purchased from Charles River Laboratories UK. During the acclimatisation period the rats were group housed in cages of three and maintained under a 12 hour light/dark cycle with free access to food and water. […] Drug quantification was performed using liquid chromatography-tandem mass spectrometry using electrospray ionisation. Pharmacokinetic parameters were calculated using Phoenix WinNonlin software.
QUANTITY KIND: clearance

1) COc1ccc(Cl)c(C(=O)NCC23CC4CC(CC(C4)C2)C3)c1 [Compound 31, reference compound]: 86.9 mL/min/kg
2) COc1ccc(Cl)c(C(=O)NCC23CC4(F)CC(F)(CC(F)(C4)C2)C3)c1 [Compound 1]: 41.8 mL/min/kg
3) COc1ccc(Cl)c(C(=O)NCC23CC4CC(F)(CC(F)(C4)C2)C3)c1 [Compound 2]: 83.5 mL/min/kg

Now let's try a different one.
Please fill in: clearance reported for COc1ccc(Cl)c(C(=O)NCC23CC4CC(CC(F)(C4)C2)C3)c1 [Compound 3] = 93.4 mL/min/kg

----------
Here, each record is paired with measured IC50 data.
# SYSTEM NAME: UniProt Q99572
# Sequence (Q99572 whole entry): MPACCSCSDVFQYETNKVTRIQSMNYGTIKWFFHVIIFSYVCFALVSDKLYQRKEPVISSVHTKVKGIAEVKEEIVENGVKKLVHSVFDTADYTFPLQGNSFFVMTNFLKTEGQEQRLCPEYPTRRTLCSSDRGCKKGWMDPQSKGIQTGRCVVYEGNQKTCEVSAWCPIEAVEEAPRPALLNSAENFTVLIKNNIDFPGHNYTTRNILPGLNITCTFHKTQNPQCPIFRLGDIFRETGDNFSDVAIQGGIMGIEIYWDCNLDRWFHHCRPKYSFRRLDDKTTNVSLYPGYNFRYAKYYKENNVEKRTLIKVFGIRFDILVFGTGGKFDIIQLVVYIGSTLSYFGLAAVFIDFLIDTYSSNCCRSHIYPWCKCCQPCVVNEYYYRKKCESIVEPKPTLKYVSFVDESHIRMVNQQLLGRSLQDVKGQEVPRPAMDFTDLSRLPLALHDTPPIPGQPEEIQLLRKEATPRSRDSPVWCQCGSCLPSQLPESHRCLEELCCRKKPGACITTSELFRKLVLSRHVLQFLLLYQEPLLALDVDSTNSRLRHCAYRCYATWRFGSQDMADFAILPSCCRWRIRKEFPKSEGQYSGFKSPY
# TEST PROTOCOL: Yo-Pro uptake assay for P2X7R pore formation in THP-1 cells
# Type: cell-based
# Set-up: Following an overnight incubation (16 h) required for THP-1 differentiation; endogenous in cells; host or cells: THP-1 (ATCC), differentiated with LPS and IFN-gamma
# MEASUREMENT CONTEXT: THP-1 cells, BzATP 100 μM, YO-PRO-1; mean ± standard deviation, n >4; read-out: Dye uptake IC50 hP2X7R
I only need the number, in nM, no unit after it.

1. COc1ccc(Cl)c(C(=O)NCC23CC4CC(CC(F)(C4)C2)C3)c1: 25.1
2. COc1ccc(Cl)c(C(=O)NCC23CC4CC(F)(CC(F)(C4)C2)C3)c1: 30.9

Now let's try a different one.
Please fill in: IC50 reported for COc1ccc(Cl)c(C(=O)NCC23CC4CC(CC(C4)C2)C3)c1 [Compound 31, reference compound] = 10.5

----------
# SYSTEM NAME: CYP2C19 (Homo sapiens)
# Construct: host or cells: insect cells infected with recombinant baculovirus (microsomes)
# Sequence (P33261 whole entry): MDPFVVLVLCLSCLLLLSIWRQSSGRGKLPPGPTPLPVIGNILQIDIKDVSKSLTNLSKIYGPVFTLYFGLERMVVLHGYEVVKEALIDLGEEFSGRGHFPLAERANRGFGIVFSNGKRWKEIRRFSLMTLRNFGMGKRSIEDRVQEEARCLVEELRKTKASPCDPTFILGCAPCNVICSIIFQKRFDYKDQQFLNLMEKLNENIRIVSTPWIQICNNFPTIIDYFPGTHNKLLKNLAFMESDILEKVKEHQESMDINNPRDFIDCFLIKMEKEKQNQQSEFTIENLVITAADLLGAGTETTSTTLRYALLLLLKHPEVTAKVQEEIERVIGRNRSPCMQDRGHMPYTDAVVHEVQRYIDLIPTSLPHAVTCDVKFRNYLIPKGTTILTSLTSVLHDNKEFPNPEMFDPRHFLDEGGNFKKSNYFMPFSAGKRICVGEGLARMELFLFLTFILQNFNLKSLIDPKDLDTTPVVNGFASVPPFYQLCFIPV
# TEST PROTOCOL: Cytochrome profiling CYP2C19 (baculosomes)
# Format: in vitro ADME
# MEASUREMENT CONTEXT: probe fluorogenic probe substrate (not named), 10 μM substrate
Here, each record is paired with measured inhibition at 60 min, 1 μM data.
I only need the number, in %, no unit after it.

Some solved cases for reference:
1) COc1ccc(Cl)c(C(=O)NCC23CC4CC(CC(C4)C2)C3)c1 [Compound 31, reference compound]: 84.4
2) COc1ccc(Cl)c(C(=O)NCC23CC4(F)CC(F)(CC(F)(C4)C2)C3)c1: 12.9
3) COc1ccc(Cl)c(C(=O)NCC23CC4CC(F)(CC(F)(C4)C2)C3)c1: 1.5

Now let's try a different one.
Please fill in: inhibition at 60 min, 1 μM reported for COc1ccc(Cl)c(C(=O)NCC23CC4CC(CC(F)(C4)C2)C3)c1 = 46.9

----------
# SYSTEM NAME: CYP3A4 (Homo sapiens, UniProt P08684)
# Construct: host or cells: insect cells infected with recombinant baculovirus (microsomes)
# Sequence (P08684 whole entry): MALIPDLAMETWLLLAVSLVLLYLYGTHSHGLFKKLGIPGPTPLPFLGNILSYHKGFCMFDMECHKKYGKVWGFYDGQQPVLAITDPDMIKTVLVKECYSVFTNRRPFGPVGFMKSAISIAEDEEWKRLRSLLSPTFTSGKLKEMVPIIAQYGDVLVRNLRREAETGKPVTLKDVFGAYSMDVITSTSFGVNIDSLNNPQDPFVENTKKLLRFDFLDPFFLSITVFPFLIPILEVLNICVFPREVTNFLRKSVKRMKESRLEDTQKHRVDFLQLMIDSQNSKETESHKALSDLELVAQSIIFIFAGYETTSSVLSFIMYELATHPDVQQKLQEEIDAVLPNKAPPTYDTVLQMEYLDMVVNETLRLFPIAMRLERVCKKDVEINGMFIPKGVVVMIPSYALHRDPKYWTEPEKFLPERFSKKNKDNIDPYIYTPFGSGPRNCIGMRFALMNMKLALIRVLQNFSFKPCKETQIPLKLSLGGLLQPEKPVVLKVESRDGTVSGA
# TEST PROTOCOL: Cytochrome profiling CYP3A4 (baculosomes)
# Type: in vitro ADME
# MEASUREMENT CONTEXT: probe fluorogenic probe substrate (not named), 10 μM substrate
Here, each record is paired with measured inhibition at 60 min, 1 μM data.

Some solved cases for reference:
1. COc1ccc(Cl)c(C(=O)NCC23CC4CC(CC(F)(C4)C2)C3)c1: 88.8%
2. COc1ccc(Cl)c(C(=O)NCC23CC4CC(CC(C4)C2)C3)c1 [Compound 31, reference compound]: 84.4%
3. COc1ccc(Cl)c(C(=O)NCC23CC4CC(F)(CC(F)(C4)C2)C3)c1: 89.9%

Please fill in: inhibition at 60 min, 1 μM reported for COc1ccc(Cl)c(C(=O)NCC23CC4(F)CC(F)(CC(F)(C4)C2)C3)c1 = 89.9%

----------
# TEST PROTOCOL: In vivo pharmacokinetic study, intravenous bolus
# MEASUREMENT CONTEXT: male, Hans Wistar; rat, 1 mg/kg intravenous bolus, plasma; read-out: AUC6 Plasma
QUANTITY KIND: AUC (ng·h/mL)
I only need the number, in ng·h/mL, no unit after it.

1. COc1ccc(Cl)c(C(=O)NCC23CC4CC(F)(CC(F)(C4)C2)C3)c1: 196
2. COc1ccc(Cl)c(C(=O)NCC23CC4CC(CC(C4)C2)C3)c1 [Compound 31, reference compound]: 186
3. COc1ccc(Cl)c(C(=O)NCC23CC4(F)CC(F)(CC(F)(C4)C2)C3)c1: 385

Please fill in: AUC reported for COc1ccc(Cl)c(C(=O)NCC23CC4CC(CC(F)(C4)C2)C3)c1 = 175

----------
Here, each record is paired with measured fraction unbound at 4 h, 1 μM data.
# TEST PROTOCOL: Brain tissue binding, rapid equilibrium dialysis
# Format: in vitro ADME
# MEASUREMENT CONTEXT: rat brain tissue, 4 hours 37° C., read-out: pb (% bound) Brain (converted)
Answer with a bare number; do not write a unit.

Some solved cases for reference:
1) COc1ccc(Cl)c(C(=O)NCC23CC4(F)CC(F)(CC(F)(C4)C2)C3)c1: 0.0549
2) COc1ccc(Cl)c(C(=O)NCC23CC4CC(CC(F)(C4)C2)C3)c1: 0.0309
3) COc1ccc(Cl)c(C(=O)NCC23CC4CC(F)(CC(F)(C4)C2)C3)c1: 0.085

Please fill in: fraction unbound at 4 h, 1 μM reported for COc1ccc(Cl)c(C(=O)NCC23CC4CC(CC(C4)C2)C3)c1 [Compound 31, reference compound] = 0.0027

----------
# TEST PROTOCOL: Liver microsome stability
# Format: in vitro ADME
# MEASUREMENT CONTEXT: liver microsomes, rat liver microsome, 37° C., read-out: Liver microsome T1/2 (converted)
Here, each record is paired with measured half-life at 1 μM data.
I only need the number, in min, no unit after it.

Please fill in: half-life at 1 μM reported for COc1ccc(Cl)c(C(=O)NCC23CC4(F)CC(F)(CC(F)(C4)C2)C3)c1 = 46.8

Please fill in: half-life at 1 μM reported for COc1ccc(Cl)c(C(=O)NCC23CC4CC(CC(F)(C4)C2)C3)c1 = 4.8

Please fill in: half-life at 1 μM reported for COc1ccc(Cl)c(C(=O)NCC23CC4CC(F)(CC(F)(C4)C2)C3)c1 = 18

Please fill in: half-life at 1 μM reported for COc1ccc(Cl)c(C(=O)NCC23CC4CC(CC(C4)C2)C3)c1 [Compound 31, reference compound] = 7.8

----------
# TEST PROTOCOL: In vivo pharmacokinetic study, intravenous bolus
# MEASUREMENT CONTEXT: male, Hans Wistar; rat, 1 mg/kg intravenous bolus, plasma; read-out: Vd Plasma
Here, each record is paired with measured Vd data.
I only need the number, in L/kg, no unit after it.

Some solved cases for reference:
1. COc1ccc(Cl)c(C(=O)NCC23CC4(F)CC(F)(CC(F)(C4)C2)C3)c1: 2.75
2. COc1ccc(Cl)c(C(=O)NCC23CC4CC(CC(F)(C4)C2)C3)c1: 1.8
3. COc1ccc(Cl)c(C(=O)NCC23CC4CC(F)(CC(F)(C4)C2)C3)c1: 1.41

Now let's try a different one.
Please fill in: Vd reported for COc1ccc(Cl)c(C(=O)NCC23CC4CC(CC(C4)C2)C3)c1 [Compound 31, reference compound] = 2.09
